Listing of entries alongside the reported OD450.
# test.target: T1, human MSLN-R2-his protein (human, UniProt Q13421 391-486)
# T1 construct: Region 2 of human mesothelin, made in HEK293E cells, His-tagged; also called human MSLN-R2 protein; hMSLN-R2-his; not shown: His tag
# T1 sequence (Q13421 other isoform, or with tags, fused parts or gaps): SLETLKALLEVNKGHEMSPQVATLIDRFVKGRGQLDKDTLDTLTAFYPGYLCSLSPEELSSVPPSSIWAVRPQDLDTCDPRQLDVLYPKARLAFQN
# method.summary: ELISA on coated MSLN-R2; antibody 1 nM
# unit: OD450 | format: bare number

- binder: "S009-F8-33.12 (antibody, human IgG1, kappa, V domains shown) VH: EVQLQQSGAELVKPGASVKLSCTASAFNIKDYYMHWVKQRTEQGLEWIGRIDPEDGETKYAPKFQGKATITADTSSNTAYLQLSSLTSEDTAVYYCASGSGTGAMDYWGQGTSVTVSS VL: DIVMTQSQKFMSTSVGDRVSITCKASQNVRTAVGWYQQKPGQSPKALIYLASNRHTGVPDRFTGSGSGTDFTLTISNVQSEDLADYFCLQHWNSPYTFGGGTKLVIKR"
  measured.endpoint: "OD450"
  readout.units: "OD450"
  observed.value: 0.04
- binder: "S009-F8-4.5 (antibody, human IgG1, kappa, V domains shown) VH: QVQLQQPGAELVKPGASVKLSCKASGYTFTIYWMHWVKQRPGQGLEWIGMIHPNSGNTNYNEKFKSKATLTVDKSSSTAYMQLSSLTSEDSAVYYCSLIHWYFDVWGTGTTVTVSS VL: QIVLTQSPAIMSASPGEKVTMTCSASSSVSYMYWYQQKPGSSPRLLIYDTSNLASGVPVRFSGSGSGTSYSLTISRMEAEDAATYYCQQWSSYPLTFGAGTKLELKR"
  measured.endpoint: "OD450"
  readout.units: "OD450"
  observed.value: 0.05
- binder: "S009-F8-32.3 (antibody, human IgG1, kappa, V domains shown) VH: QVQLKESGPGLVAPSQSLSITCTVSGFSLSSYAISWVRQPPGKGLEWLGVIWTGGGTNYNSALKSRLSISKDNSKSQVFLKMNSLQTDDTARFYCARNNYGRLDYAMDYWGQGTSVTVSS VL: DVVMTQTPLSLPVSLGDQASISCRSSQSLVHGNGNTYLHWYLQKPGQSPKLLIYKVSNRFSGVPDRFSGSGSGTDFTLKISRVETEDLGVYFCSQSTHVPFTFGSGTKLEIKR"
  measured.endpoint: "OD450"
  readout.units: "OD450"
  observed.value: 0.04

Now for another entry.
[Q] What OD450 value was documented for this binder, S009-F8-15.19 (antibody, human IgG1, kappa, V domains shown) VH: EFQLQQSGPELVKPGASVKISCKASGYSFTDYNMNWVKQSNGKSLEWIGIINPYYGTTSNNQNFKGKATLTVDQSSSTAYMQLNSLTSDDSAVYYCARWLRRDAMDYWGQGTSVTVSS VL: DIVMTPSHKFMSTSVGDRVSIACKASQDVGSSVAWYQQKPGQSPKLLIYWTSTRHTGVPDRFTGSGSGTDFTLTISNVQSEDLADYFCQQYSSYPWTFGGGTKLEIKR ?
[A] 0.04
